Reported values of PBM binding z-score for individual entries
# Test system: RARg homodimer (NR concentration 270 nM)
# Test method notes: PBM binding z-score (relative to random genomic background probes); higher = stronger binding; sequences stand for … in GC…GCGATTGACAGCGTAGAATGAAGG
Number, no unit, nothing else.

Below: 3 sequences and their reported PBM binding z-score.
Ask: State the recorded PBM binding z-score for this entry: AGAATGGGGTTATACGTAGATCAGGGAAGAAAGT
Result: 0.984

Ask: Continue with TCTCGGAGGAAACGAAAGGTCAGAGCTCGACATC
Result: 3.59

Ask: Continue with AATACAGGGTCATCGTACGCCAGAGTACGCACAG
Result: 4.81

Further cases:
Ask: State the recorded PBM binding z-score for this entry: TCTCGGAGGACACTAAAGGTCAGAGCTCGACATC
Result: 4.68

----------
# System: RXRa DBDmut IVT, anti-RXR (DBD mutation: RXRa K156A/R161A, NR concentration 90 nM)
# Test method notes: PBM binding z-score (relative to random genomic background probes); higher = stronger binding; sequences stand for … in GC…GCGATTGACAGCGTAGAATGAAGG
PBM binding z-score vs 2: at or above is yes, below is no.

Past entries and their recorded results:
Ask: Exam item: decide whether the reported PBM binding z-score for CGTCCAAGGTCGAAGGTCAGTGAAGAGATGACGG is at least 2.
Result: no

Ask: Continue with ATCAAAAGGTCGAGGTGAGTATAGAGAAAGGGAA
Result: no

Further cases:
Ask: Exam item: decide whether the reported PBM binding z-score for TAGCCTAAGTCATGCGGGCCAGTATAGTGTCGGC is at least 2.
Result: no

Ask: Continue with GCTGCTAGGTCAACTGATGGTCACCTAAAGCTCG
Result: no

Ask: Continue with CGTCCAAGGTCAAGGTCAATGAAAGAGACTCGAA
Result: yes

Ask: Continue with ATATGTAGGTTAGGGGTCATTCAGGTTGGTTCGC
Result: yes

Ask: Continue with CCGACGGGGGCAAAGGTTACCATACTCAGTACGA
Result: yes

Ask: Continue with ATATGTAGGTTAGGGTCAGTCAGAAAGTAGGGAA
Result: no

----------
# Test system: LXRa homodimer (NR concentration 270 nM)
# Test method notes: PBM binding z-score (relative to random genomic background probes); higher = stronger binding; sequences stand for … in GC…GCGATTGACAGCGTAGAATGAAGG
Recorded metric: PBM binding z-score
Number, no unit, nothing else.

Ask: State the recorded PBM binding z-score for this entry: CACACTAGGTCACAGAGGTCAAAGTCCGTGCGTA
Result: 8.63

Ask: Continue with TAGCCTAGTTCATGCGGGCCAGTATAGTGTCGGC
Result: -0.511

Ask: Continue with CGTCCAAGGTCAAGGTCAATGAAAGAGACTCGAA
Result: 1.82

Ask: Continue with CGAACTAGGTCGCCAGGACAGTGAAGAGGTTGGA
Result: -0.593

Further cases:
Ask: State the recorded PBM binding z-score for this entry: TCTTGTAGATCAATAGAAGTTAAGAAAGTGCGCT
Result: -0.154

Ask: Continue with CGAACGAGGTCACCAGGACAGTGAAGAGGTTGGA
Result: 0.912

Ask: Continue with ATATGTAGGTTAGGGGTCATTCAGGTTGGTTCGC
Result: 4.58

Ask: Continue with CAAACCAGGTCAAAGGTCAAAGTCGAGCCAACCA
Result: 5.78

Ask: Continue with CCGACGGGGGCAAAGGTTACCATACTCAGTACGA
Result: 0.667

Ask: Continue with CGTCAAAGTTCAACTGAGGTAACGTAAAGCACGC
Result: 5.02

Ask: Continue with AGTCAAAGTTGAGGACGAGGTAACGTAAAGCACG
Result: -0.388

The measured values listed here are drawn from the supplement of paper PMC6555819.
